biological target: purified human farnesyl protein transferase (Homo sapiens, UniProt P49354+P49356); test: (H-Ras) Farnesyl Transferase Inhibition assay; settings: transfer of [3H] farnesyl from [3H] farnesyl pyrophosphate to biotin-CVLS peptide; 37° C., 60 minutes; SPA beads
parameter: pIC50
pIC50 (log units): -log10 of the concentration in mol/L.

INSERT INTO measurements (chemical_structure, measured_result) VALUES
  ('NC(=O)N1CC=C(CC(=O)N2CCC([C@H]3c4ncc(Br)cc4CCc4cc(Cl)cc(Br)c43)CC2)CC1', 8.59);

Now look at this entry.
So, `NC(=O)N1CCC(=CC(=O)N2CCC([C@H]3c4ncc(Br)cc4CCc4cc(Cl)cc(Br)c43)CC2)CC1` ? Its pIC50 was 7.63
